TARGET_OR_TEST_SYSTEM: Protein RecA (Mycobacterium tuberculosis, UniProt P9WHJ3)
MEASUREMENT_DESCRIPTION: Fluorescence Cell-Free Homogeneous Dose Retest to Identify Inhibitors of RecA-Intein Splicing Activity. [Related pubchem assays (depositor defined):AID2097, AID2223, AID489010, AID492950]
Type: functional
Activity calls are given as the source filed them.

| MOLECULE | TARGET_OR_TEST_SYSTEM | EC50 |
| --- | --- | --- |
| CCn1c(COc2ccc(Cl)cc2)nnc1SC1CCc2ccccc2C1=O (stereo not drawn) | Protein RecA (Mycobacterium tuberculosis, UniProt P9WHJ3) | 25.4 µM (active) |
| O=C(O)CC1OCC=C2CN3CCC45C6=CC(=O)C(O)=C([N+](=O)[O-])C6=NC4C1C2CC35 (stereo not drawn) | Protein RecA (Mycobacterium tuberculosis, UniProt P9WHJ3) | 7.02 µM (active) |
| CCCc1n[nH]c2c1C(CCc1ccccc1)C(C#N)=C(N)O2 (stereo not drawn) | Protein RecA (Mycobacterium tuberculosis, UniProt P9WHJ3) | 7.93 µM (active) |
| CO/C(O)=C1/C(C)=NC(=S)NC1c1ccc(OC(=O)c2ccco2)cc1 (stereo not drawn) | Protein RecA (Mycobacterium tuberculosis, UniProt P9WHJ3) | 14.4 µM (active) |
| COC(=O)Cc1n[nH]c2c1C1(CCSCC1)C(C#N)=C(N)O2 | Protein RecA (Mycobacterium tuberculosis, UniProt P9WHJ3) | 1.99 µM (active) |
| COc1ccc(/C(=N/OC(C)=O)c2nccc3cc(OC)c(OC)cc23)cc1OC | Protein RecA (Mycobacterium tuberculosis, UniProt P9WHJ3) | 36.3 µM (active) |
| O=C(CCl)N(CCc1ccccc1)CCc1ccccc1 | Protein RecA (Mycobacterium tuberculosis, UniProt P9WHJ3) | 2.36 µM (active) |
| COc1ccccc1Oc1cc(C#N)c(C#N)cc1-n1nnc2ccccc21 | Protein RecA (Mycobacterium tuberculosis, UniProt P9WHJ3) | 3.77 µM (active) |

====

TARGET_OR_TEST_SYSTEM: DNA dC->dU-editing enzyme APOBEC-3A (Homo sapiens, UniProt P31941)
Sequence (P31941 whole entry): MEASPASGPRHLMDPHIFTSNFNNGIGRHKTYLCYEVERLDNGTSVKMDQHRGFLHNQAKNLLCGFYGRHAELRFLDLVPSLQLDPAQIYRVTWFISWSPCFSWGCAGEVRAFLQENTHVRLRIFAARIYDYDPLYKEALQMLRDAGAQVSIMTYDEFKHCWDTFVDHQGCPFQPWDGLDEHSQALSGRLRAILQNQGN
MEASUREMENT_DESCRIPTION: Dose Response confirmation of small molecule APOBEC3A DNA Deaminase Inhibitors via a fluorescence-based single-stranded DNA deaminase assay. [Related pubchem assays (depositor defined):AID493011, AID493024]
Format: functional
Activity calls are given as the source filed them.

| COMPOUND | TARGET_OR_TEST_SYSTEM | IC50 |
| --- | --- | --- |
| O=C(Nc1ccccc1F)c1ccc(CSc2ncccn2)cc1 | DNA dC->dU-editing enzyme APOBEC-3A (Homo sapiens, UniProt P31941) | 4.88 µM (active) |
| CCOC(=O)C1CCN(C(=O)Cc2cccc3ccccc23)CC1 | DNA dC->dU-editing enzyme APOBEC-3A (Homo sapiens, UniProt P31941) | 5.89 µM (active) |
| N#C/C(=C\c1c[nH]c2ccccc12)C(=O)NCC1CCCO1 (stereo not given) | DNA dC->dU-editing enzyme APOBEC-3A (Homo sapiens, UniProt P31941) | 5.69 µM (active) |
| CCOc1ccc(N(CC(=O)Nc2ccccc2)S(C)(=O)=O)cc1 | DNA dC->dU-editing enzyme APOBEC-3A (Homo sapiens, UniProt P31941) | 3.89 µM (active) |
| C[n+]1cc(-c2ccccc2)n2c1CCCCC2 | DNA dC->dU-editing enzyme APOBEC-3A (Homo sapiens, UniProt P31941) | 1.66 µM (active) |

====

TARGET_OR_TEST_SYSTEM: Metabotropic glutamate receptor 3 (Rattus norvegicus)
Sequence (P31422 whole entry): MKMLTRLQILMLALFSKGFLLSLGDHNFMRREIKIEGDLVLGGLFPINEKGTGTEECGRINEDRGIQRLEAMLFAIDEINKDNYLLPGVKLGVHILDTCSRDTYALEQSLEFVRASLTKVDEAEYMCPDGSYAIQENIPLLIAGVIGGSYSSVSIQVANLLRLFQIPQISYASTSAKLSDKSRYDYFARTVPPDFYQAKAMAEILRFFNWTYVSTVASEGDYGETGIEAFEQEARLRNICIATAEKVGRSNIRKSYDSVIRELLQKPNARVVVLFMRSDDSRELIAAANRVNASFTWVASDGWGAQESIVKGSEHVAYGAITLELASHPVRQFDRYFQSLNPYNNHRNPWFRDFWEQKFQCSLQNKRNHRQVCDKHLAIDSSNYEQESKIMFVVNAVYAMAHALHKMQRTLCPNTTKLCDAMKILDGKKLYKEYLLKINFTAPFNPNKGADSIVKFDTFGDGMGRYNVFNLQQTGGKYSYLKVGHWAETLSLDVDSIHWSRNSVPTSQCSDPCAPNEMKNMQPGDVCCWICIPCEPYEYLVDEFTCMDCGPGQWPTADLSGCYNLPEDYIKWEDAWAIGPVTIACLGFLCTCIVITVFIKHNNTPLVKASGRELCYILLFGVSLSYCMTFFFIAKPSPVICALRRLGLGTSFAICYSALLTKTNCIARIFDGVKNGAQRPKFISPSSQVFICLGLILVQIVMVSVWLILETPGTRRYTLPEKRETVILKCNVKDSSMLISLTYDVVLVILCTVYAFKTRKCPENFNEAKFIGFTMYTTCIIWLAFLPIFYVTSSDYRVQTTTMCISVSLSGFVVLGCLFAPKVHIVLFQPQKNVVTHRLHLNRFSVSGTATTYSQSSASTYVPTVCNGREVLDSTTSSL
MEASUREMENT_DESCRIPTION: mGlu3 negative allosteric modulator potency, dose response, HEK/GIRK cells, thallium flux, rat (AID 651839)
pIC50: −log10 of the molar value.

| MOLECULE | TARGET_OR_TEST_SYSTEM | pIC50 |
| --- | --- | --- |
| Cc1cc2cc(C#Cc3ccc(C(=O)N4CCCC(CO)C4)cc3)ccc2o1 (stereo unspecified) | Metabotropic glutamate receptor 3 (Rattus norvegicus) | 5.41 |

====

TARGET_OR_TEST_SYSTEM: Rac GTPase-activating protein 1 (Homo sapiens)
Sequence (Q9H0H5 whole entry): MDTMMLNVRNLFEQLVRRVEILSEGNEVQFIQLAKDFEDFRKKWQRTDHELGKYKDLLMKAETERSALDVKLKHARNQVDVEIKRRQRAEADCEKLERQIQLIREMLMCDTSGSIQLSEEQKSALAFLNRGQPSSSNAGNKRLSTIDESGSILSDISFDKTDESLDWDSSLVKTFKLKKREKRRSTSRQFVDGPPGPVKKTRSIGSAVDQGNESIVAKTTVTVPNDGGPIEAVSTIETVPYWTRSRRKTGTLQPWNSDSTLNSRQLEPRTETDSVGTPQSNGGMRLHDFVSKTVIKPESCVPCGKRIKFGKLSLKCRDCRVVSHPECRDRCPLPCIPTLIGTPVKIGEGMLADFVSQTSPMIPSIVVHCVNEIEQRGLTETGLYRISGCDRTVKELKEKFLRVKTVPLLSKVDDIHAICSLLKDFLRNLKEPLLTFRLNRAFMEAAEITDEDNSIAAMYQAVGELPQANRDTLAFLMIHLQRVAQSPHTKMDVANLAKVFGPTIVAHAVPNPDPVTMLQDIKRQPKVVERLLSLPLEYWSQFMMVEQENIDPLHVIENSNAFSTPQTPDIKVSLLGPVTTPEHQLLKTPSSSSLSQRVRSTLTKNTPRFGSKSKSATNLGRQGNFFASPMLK
MEASUREMENT_DESCRIPTION: MgcRacGAP GTPase-activating activity inhibitors, confirmation, biochemical, ADP Hunter fluorescence, primary and confirmatory (AID 624330)
Format: functional
Active and inactive are the calls of the source.
Measured IC50 values are reported for all entries that follow.
QUANTITY_MEASURED: IC50

| MOLECULE | QUANTITY_MEASURED | MEAS_VALUE |
| --- | --- | --- |
| Oc1ccc(/C=N/NC(=S)NCc2ccco2)cc1 | IC50 | 35.3 µM (active) |
| Cc1ccc(NC(=O)CCC(=O)N/N=C/c2ccc(O)cc2)cc1 | IC50 | 51.4 µM (active) |
| COc1cc(-c2cc(C(=O)O)c3c(OC)c(OC)c(OC)cc3n2)ccc1O | IC50 | 126 µM (active) |
| CCCS(=O)(=O)N1CCN(C2Cc3ccccc3C2)CC1 | IC50 | 180 µM (active) |
| O=C1N/C(=C\c2ccc(O)cc2)C(O)=C1/C=N/Cc1ccccc1 | IC50 | 13 µM (active) |
| O=C(COc1ccc2ccccc2c1)N1CCN(Cc2ccncc2)CC1 | IC50 | 62.2 µM (active) |

====

TARGET_OR_TEST_SYSTEM: ORF 73 (Human herpesvirus 8)
Sequence (O40947 whole entry): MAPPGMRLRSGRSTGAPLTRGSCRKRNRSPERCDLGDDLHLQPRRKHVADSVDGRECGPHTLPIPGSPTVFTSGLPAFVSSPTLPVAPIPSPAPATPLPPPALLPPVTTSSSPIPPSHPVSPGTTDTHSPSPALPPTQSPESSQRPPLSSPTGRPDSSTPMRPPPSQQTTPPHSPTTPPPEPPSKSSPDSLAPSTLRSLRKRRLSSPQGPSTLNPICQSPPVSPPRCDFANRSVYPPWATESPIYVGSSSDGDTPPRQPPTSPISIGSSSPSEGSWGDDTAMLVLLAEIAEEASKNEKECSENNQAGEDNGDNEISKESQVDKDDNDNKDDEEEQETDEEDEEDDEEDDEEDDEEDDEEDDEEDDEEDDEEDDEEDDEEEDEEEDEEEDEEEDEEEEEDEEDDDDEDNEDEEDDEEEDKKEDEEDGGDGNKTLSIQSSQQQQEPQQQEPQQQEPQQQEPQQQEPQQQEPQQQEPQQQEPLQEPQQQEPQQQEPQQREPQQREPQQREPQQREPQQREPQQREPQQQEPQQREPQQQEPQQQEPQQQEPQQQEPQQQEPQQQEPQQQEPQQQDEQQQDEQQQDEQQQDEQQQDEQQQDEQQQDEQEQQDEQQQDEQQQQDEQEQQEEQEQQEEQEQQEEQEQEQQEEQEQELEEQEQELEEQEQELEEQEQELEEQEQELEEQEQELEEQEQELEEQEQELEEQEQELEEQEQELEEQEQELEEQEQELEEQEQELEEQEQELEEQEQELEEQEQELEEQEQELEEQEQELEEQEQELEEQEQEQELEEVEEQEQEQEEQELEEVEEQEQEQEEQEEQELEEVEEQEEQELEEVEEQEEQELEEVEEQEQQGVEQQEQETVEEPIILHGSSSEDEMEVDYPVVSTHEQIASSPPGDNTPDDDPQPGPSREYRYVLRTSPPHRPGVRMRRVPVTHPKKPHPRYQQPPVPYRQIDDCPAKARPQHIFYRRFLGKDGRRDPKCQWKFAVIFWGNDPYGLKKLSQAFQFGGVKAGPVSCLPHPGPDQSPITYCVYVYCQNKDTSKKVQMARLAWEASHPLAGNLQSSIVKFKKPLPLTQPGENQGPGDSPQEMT
MEASUREMENT_DESCRIPTION: inhibitors of C-LANA binding to LBS DNA, dose response, biochemical, fluorescence polarization, cherry-picked samples (AID 504725);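 further: fluorescence polarization of a labeled DNA duplex reporting LANA DNA binding; potency is for inhibitors that block LANA binding to the DNA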
Parameters: species or system Human gammaherpesvirus 8
Calls of active or inactive are those of the source.

| MOLECULE | AC50 |
| --- | --- |
| COc1ccc(C2C(C(=O)c3cccs3)=C(O)C(=O)N2c2nnc(C)s2)cc1OC (stereo unspecified) | 17.5 µM (active) |
| Nc1ccc2nc3c(O)nc(S)nc3nc2c1 | 3.62 µM (active) |
| CNc1c2cccc(C)c2nc2c(C(=O)NCCN(C)C)cccc12 | 5.35 µM (active) |
| COc1ccc(OC)c(-c2c3cc(O)c(=O)cc-3oc3cc(O)c(O)cc23)c1 | 1.56 µM (active) |
| O=C(O)C(Cc1ccccc1)N1C(=O)/C(=C/C=C/c2ccco2)SC1=S (stereo unspecified) | 108 µM (active) |
| O=C(CN1C(=O)/C(=C/c2ccco2)SC1=S)Nc1ccc(C(=O)O)c(O)c1 | 76.1 µM (active) |

====

TARGET_OR_TEST_SYSTEM: Cytochrome P450 2C9 (Homo sapiens)
Sequence (P11712 whole entry): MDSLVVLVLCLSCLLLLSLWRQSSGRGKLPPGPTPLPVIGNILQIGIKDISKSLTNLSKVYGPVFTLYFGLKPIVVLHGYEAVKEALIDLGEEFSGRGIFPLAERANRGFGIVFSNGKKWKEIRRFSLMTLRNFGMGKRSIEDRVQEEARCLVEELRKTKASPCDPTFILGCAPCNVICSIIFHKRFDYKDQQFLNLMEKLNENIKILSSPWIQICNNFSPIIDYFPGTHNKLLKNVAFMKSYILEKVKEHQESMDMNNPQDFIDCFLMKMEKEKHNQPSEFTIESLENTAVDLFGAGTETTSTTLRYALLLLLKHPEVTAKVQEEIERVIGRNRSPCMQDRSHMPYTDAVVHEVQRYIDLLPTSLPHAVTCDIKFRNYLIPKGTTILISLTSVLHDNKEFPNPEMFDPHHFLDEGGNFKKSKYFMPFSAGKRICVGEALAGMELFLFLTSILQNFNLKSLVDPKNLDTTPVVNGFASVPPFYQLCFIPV
RUN_CONDITIONS: Potency
QUANTITY_MEASURED: AC50

| MOLECULE | MEAS_VALUE |
| --- | --- |
| COC(=O)NC(/C(C(=O)OC)=C(\C)NCc1ccccc1)c1ccc2ccccc2c1 (stereo unspecified) | 1 µM (inconclusive) |
| C=CCc1cccc(C2C(C)CCC3C(=O)N4C(CCC(C)C4c4cccc(CC=C)c4)C(=O)N32)c1 (stereo unspecified) | 3.98 µM (inconclusive) |
| C=C(C)C(O)/C=C/c1cccc(OC)c1 (stereo unspecified) | 7.94 µM (inconclusive) |
| COc1ccc(/C=C/C2=CC3(C)CC2(C)C(c2ccc(OC)cc2)CC3=O)cc1 (stereo unspecified) | 7.94 µM (inconclusive) |
| NCCC[C@@H](CC(=O)N[C@@H]1CCNC[C@H]1C(=O)N[C@H](CC(=O)N[C@@H](CCC(=O)O)CC(=O)O)Cc1c[nH]c2ccccc12)NC(=O)C[C@H](CO)NC(=O)[C@@H]1CNCC[C@H]1N | 39.8 µM (inconclusive) |
| O=c1cc(-c2ccccc2O)oc2ccc3ccccc3c12 | 31.6 µM (inconclusive) |
